protocol-summary: RP, Waters ACQUITY UPLC BEH C18, 38 °C, 0.24 mL/min; A: water + 0.1% formic acid, pH 3; B: acetonitrile + 0.1% formic acid, pH 3; gradient (min/%B) 0/0 0.25/0 0.4/9 0.8/17 1.9/100 2.1/100 2.11/0 3/0
condition-summary: stereoisomer not certain
quantity-name: LC retention time (min)

COc1ccc(-c2coc3cc(OC4OC(CO)C(O)C(O)C4O)cc(O)c3c2=O)cc1 (stereo not drawn) [Sissotrin] : 1.61
CCCCCCCCCCCCCC=CC(O)C(N)COC1OC(CO)C(O)C(O)C1O [D-Glucosyl-beta1-1'-D-erythoro-Sphingosine] : 1.84
O=C1CC(c2ccc(O)c(O)c2)Oc2cc(O)cc(O)c21 (stereo not drawn) [Eriodictyol] : 1.59

====

protocol-summary: RP, Waters ACQUITY UPLC BEH C18, 38 °C, 0.24 mL/min; A: water + 0.1% formic acid, pH 3; B: acetonitrile + 0.1% formic acid, pH 3; gradient (min/%B) 0/0 0.25/0 0.4/9 0.8/17 1.9/100 2.1/100 2.11/0 3/0
condition-summary: stereoisomer not certain
Where a name gives a salt, the structure may show the parent alone.
quantity-name: LC retention time (min)

Previously resolved entries follow.
CC1OC(OCC2OC(Oc3c(-c4ccccc4O)oc4cc(O)cc(O)c4c3=O)C(O)C(O)C2O)C(O)C(O)C1O (configuration not stated) [Datiscin] : 1.4
CSCC1OC(n2cnc3c(N)ncnc32)C(O)C1O (configuration not stated) [5'-Deoxy-5'-Methylthioadenosine] : 1.14
CCCCCCCCCCCCCCCC(O)C(N)CO [D-erythro-Dihydrosphingosine] : 1.98
N[C@@H](Cc1ccc(O)c(Cl)c1)C(=O)O [3-Chloro-L-tyrosine hydrochloride] : 1.1
Nc1ncnc2c1ncn2C1CC(O)C(COP(=O)(O)O)O1 (configuration not stated) [2'-Deoxyadenosine-5'-monophosphate] : 0.62
CC(C)CC(N)C(=O)O [L-Leucine, (Cell Culture Reagent, Crystalline)] : 0.53
O=C1CC(c2ccc(O)cc2)Oc2cc(O)cc(O)c21 (configuration not stated) [naringenin] : 1.67
Cc1cc2nc3c(=O)[nH]c(=O)nc-3n(CC(O)C(O)C(O)COP(=O)(O)O)c2cc1C (configuration not stated) : 1.19
COc1cc(CNC(=O)CCCCCCC(C)C)ccc1O [Dihydrocapsaicin] : 2
NCCCC(=O)NC(Cc1cnc[nH]1)C(=O)O [L-Homocarnosine] : 0.16

P. N[C@@H](Cc1cnc[nH]1)C(=O)O [L-Histidine]
Q. CC(=CCNc1ncnc2c1ncn2C1OC(CO)C(O)C1O)CO (stereo not drawn) [trans-Zeatin-riboside]
INPUT: Between the entries labeled P and Q , whose measured LC retention time is lower? Returns: label corresponding to the selected item.
OUTPUT: P

====

protocol-summary: RP, Waters ACQUITY UPLC BEH C18, 38 °C, 0.24 mL/min; A: water + 0.1% formic acid, pH 3; B: acetonitrile + 0.1% formic acid, pH 3; gradient (min/%B) 0/0 0.25/0 0.4/9 0.8/17 1.9/100 2.1/100 2.11/0 3/0
condition-summary: stereoisomer not certain
quantity-name: LC retention time (min)

I. O=C(O)c1ccccc1O
II. CNC(C)C(=O)O (racemic)
INPUT: Between the entries labeled I and II , whose measured LC retention time is lower? Returns: label corresponding to the selected item.
OUTPUT: II
